# Test system: Oryza sativa
# Assay Explanation: Greenhouse post-emergence herbicidal activity on crop ORYSA (rice)
# Format: in vivo
# Condition Summary: crop ORYSA (rice), application rate 0.063 kg/ha
Metric: Herbicidal activity
Respond using a number only.

Smiles	Herbicidal activity
CN(c1cccc(C2=C(O)c3ncccc3CS2(=O)=O)c1C(F)(F)F)S(C)(=O)=O	15
CN(c1cccc(C2=C(O)c3ncccc3C(C)(C)S2(=O)=O)c1C(F)(F)F)S(C)(=O)=O	40
CN(c1c(Cl)ccc(C2=C(O)c3ncc(F)cc3CS2(=O)=O)c1Cl)S(C)(=O)=O	0
CN(c1cccc(C2=C(O)c3ncccc3C(C)(C)S2(=O)=O)c1S(C)(=O)=O)S(C)(=O)=O	0

Consider now this further molecule.
// Input: CN(c1cccc(C2=C(O)c3ncccc3CS2(=O)=O)c1S(C)(=O)=O)S(C)(=O)=O . Output its Herbicidal activity only.
20

Cited source: patent US10023590B2
